These data points were gathered from PubChem BioAssay AID540269.

target: glucose-6-phosphate dehydrogenase-6-phosphogluconolactonase (Plasmodium falciparum 3D7); assay: PfG6PD enzyme inhibitors, kinetic NADPH readout, dose response, orthogonal assay, biochemical, kinetic NADPH detection (AID 540269); conditions: purified PfG6PD-6PGL
The source made the active and inactive calls. How the calls were made is not given here.
Select the matching outcome among active, inactive

Some solved entries appear below for comparison.
O=C1Nc2ccccc2C(=O)C1(Cl)Cc1ccccc1 (stereo unspecified) | inactive
COc1cc(NCc2ccccc2O)c2ncccc2c1 | active
O=C(CCC(=O)Nc1ccccc1Cl)N/N=C/c1ccccc1 | inactive
CN1C(=O)C(N=Nc2ccc([N+](=O)[O-])cc2)SC1=S (stereo unspecified) | inactive
Cc1[nH]c2ccccc2c1/C=N/Nc1nncn1N | inactive

--- query ---
Q. // param item: COc1cc(OC)c(C2CC(=O)N3CN(c4ccccc4)CSC3=C2C#N)cc1OC (stereo unspecified) ; yields the recorded call
A. inactive

###

biological target: glucose-6-phosphate dehydrogenase-6-phosphogluconolactonase (Plasmodium falciparum 3D7); test: PfG6PD enzyme inhibitors, kinetic NADPH readout, dose response, orthogonal assay, biochemical, kinetic NADPH detection (AID 540269); details: purified PfG6PD-6PGL
The source made the active and inactive calls. How the calls were made is not given here.
property.label: IC50

A selection of reference data follows.
O=C(Nc1nnc(S(=O)(=O)N2CCCC2)s1)c1cccc([N+](=O)[O-])c1 | > 80 µM (inactive)
CCOc1ccc(NC(=O)Cn2sc3nc(C)cc(C)c3c2=O)cc1 | 37.5 µM
Cc1ccc(S(=O)(=O)N(C)C)cc1NC(=O)CSc1nc2ncc(Cl)cc2[nH]1 | > 80 µM (inactive)

Sure, the documented IC50 for O=C(Sc1n[nH]c(=O)[nH]c1=O)c1ccccc1 is 22.8 µM

// CCC1(C)CC(C(N)=S)CCO1 (centres undefined) : IC50 value = > 80 µM (inactive)

Form: compound = [O-]/[N+](=C\c1ccco1)c1ccc(Cl)cc1 ; IC50 = 76.7 µM

The reported IC50 of the compound Brc1cc2[nH]cnc2c2ccccc12 was > 80 µM (inactive)

###

target: glucose-6-phosphate dehydrogenase-6-phosphogluconolactonase (Plasmodium falciparum 3D7); assay: PfG6PD enzyme inhibitors, kinetic NADPH readout, dose response, orthogonal assay, biochemical, kinetic NADPH detection (AID 540269); settings: purified PfG6PD-6PGL
The source made the active and inactive calls. No rule for the calls is given here.
Return exactly one item of active, inactive

Cc1ccc(Nc2cc(C)c(O)c(C)c2)cc1 | inactive
CCOc1ccccc1NC(=O)CCCc1nc2ccccc2c(=O)[nH]1 | inactive

Q. Recorded test outcome, item Cc1cc(SCC(=O)N/N=C/c2ccco2)nc2ccccc12
A. inactive

Q. Look up the recorded call for Cc1no[n+]([O-])c1COc1cccc(/C=N/Nc2nncn2N)c1 in this test.
A. active

Q. Answer briefly: the call reported for COc1cc(/C=C/C(=O)c2ccc([N+](=O)[O-])o2)ccc1O in this assay.
A. inactive

Q. Look up the recorded call for Cn1c2ccccc2c2ccc3c(c21)C(=O)C=CC3=O in this test.
A. active

Q. Hi team, can someone confirm the assay call for CCOC(=O)c1cnc2ccc(C)cc2c1Sc1ccccc1C(=O)OC ?
A. inactive

Q. Recorded call for CCc1cc(-c2n[nH]c(C)c2-c2ccccc2Cl)c(O)cc1OC ?
A. inactive

###

biological target: glucose-6-phosphate dehydrogenase-6-phosphogluconolactonase (Plasmodium falciparum 3D7); experiment: PfG6PD enzyme inhibitors, kinetic NADPH readout, dose response, orthogonal assay, biochemical, kinetic NADPH detection (AID 540269); details: purified PfG6PD-6PGL
Calls of active or inactive are those of the source. How the calls were made is not given here.
Respond with a class label; see label 1 for active, label 0 for inactive

CCN(CC)c1ccc(NC(=O)c2ccccc2Br)cc1S(=O)(=O)Nc1ccccc1OC | label 1
COc1ccc2ccccc2c1C1CC(=O)N2CN(C3CCCCC3)CSC2=C1C#N (stereo unspecified) | label 0
Cc1noc(C(=O)Nc2sc3c(c2C#N)CCC3)c1Cl | label 0
CCOC(=O)Cc1csc(-n2sc3ccccc3c2=O)n1 | label 1
Cc1cc(C)c2c(=O)n(CC(=O)N3CCC(N4CCCCC4)CC3)sc2n1 | label 1
Oc1ccc(C2C[C@H]3CC[C@@H]2C3)cc1O (stereo partly specified) | label 1

Q. // return assay outcome for COC1=C(N)C(=O)c2nc(C)ccc2C1=O
A. label 0

Q. Given C[n+]1c(-c2ccccc2)cc2c(=Cc3ccc([N+](=O)[O-])cc3)c3ccccc3n21 , state the outcome it received in this test.
A. label 1

Q. Assay result, entry Cc1nnc(Sc2cc(NCCO)c([N+](=O)[O-])c3nonc23)s1 — outcome?
A. label 1

Q. Hi, sorry to bother you, what did the test record for CN1CCN(C(=S)c2ccc(Br)cc2)CC1 ?
A. label 0

Q. Tell me the recorded outcome of this test for COc1ccc(NC(=S)N(CCC(C)C)C2CCN(C(C)C)CC2)cc1Cl .
A. label 1

###

target: glucose-6-phosphate dehydrogenase-6-phosphogluconolactonase (Plasmodium falciparum 3D7); test: PfG6PD enzyme inhibitors, kinetic NADPH readout, dose response, orthogonal assay, biochemical, kinetic NADPH detection (AID 540269); details: purified PfG6PD-6PGL
Activity calls are given as the source filed them. The rule behind the calls is not given here.
Hi! Could you answer with just one of these? 1 (yes) for active, 0 (no) for inactive

Please review the following examples before continuing.
O=c1c2ccccc2sn1-c1ccc(Cl)cc1Cl | 1 (yes)
COc1ccc(CCn2c(NN)nc3c2c(=O)[nH]c(=O)n3C)cc1 | 1 (yes)
CC(C)Nc1ccc(Nc2ccccc2)cc1 | 0 (no)

Q. For this molecule, state the assay outcome: C(=N\Nc1nc2ccccc2[nH]1)/c1ccccn1
A. 0 (no)

Q. Called result for O=C(CN1C(=O)C2C3C=CC(C3)C2C1=O)OCC(=O)c1ccc([N+](=O)[O-])cc1 (stereo unspecified)
A. 0 (no)

Q. # outcome recorded in this test, key = O=C(O)c1ccc(-n2c(-c3cc(-c4ccco4)[nH]n3)n[nH]c2=S)cc1
A. 1 (yes)

Q. Lab log entry: CN(C)c1cccc2c1c(NC(=O)c1ccc(Cl)cc1)nn2C — outcome as called in the assay?
A. 0 (no)

Q. Entry COC(=O)c1cc2c(n1S(=O)(=O)c1ccc(C)cc1)C(=O)C(=O)c1[nH]cc(C(=O)OCc3ccccc3)c1-2 : call = ?
A. 0 (no)

Q. Hello, I am checking results. What call was entered for Nc1ccc(N(CCO)CCO)cc1 ?
A. 0 (no)

Q. Just curious, what result did O=C(Nc1ccccn1)c1sc2cc([N+](=O)[O-])ccc2c1Cl get here?
A. 0 (no)

Q. What did this assay record as the result for O=C1C(Cl)=C(NCCc2ccccc2)C(=O)c2ccccc21 ?
A. 1 (yes)

###

biological target: glucose-6-phosphate dehydrogenase-6-phosphogluconolactonase (Plasmodium falciparum 3D7); experiment: PfG6PD enzyme inhibitors, kinetic NADPH readout, dose response, orthogonal assay, biochemical, kinetic NADPH detection (AID 540269); details: purified PfG6PD-6PGL
Calls of active or inactive are those of the source. No rule for the calls is given here.
Bench note: report the call from true (1) (active), false (0) (inactive)

Below, 5 molecules whose answers are already recorded.
CCOc1ccc(S(=O)(=O)Nc2cc(SCC(=O)O)c(O)c3ccccc23)cc1 | true (1)
O=C(Nc1ccc(N2CCN(C(=O)c3ccco3)CC2)c(Cl)c1)c1cc2ccccc2o1 | true (1)
C/C(Cn1nnc([N+](=O)[O-])n1)=N\NC(=O)c1ccccc1O | true (1)
O=C(Nc1ccc(N2CCCC2)cc1)c1cccc(-c2cc3ccccc3oc2=O)c1 | false (0)
CC(=NNC(=S)N1CCN(c2ccccn2)CC1)c1nccs1 | false (0)

Q. Outcome logged for Nc1[nH]c(=O)[nH]c(=O)c1N=Cc1ccccc1 in this assay:
A. true (1)

Q. Per the records of this test, what outcome belongs to COc1cccc2nc3cc(C)c(C)cc3nc12 ?
A. false (0)

###

biological target: glucose-6-phosphate dehydrogenase-6-phosphogluconolactonase (Plasmodium falciparum 3D7); assay: PfG6PD enzyme inhibitors, kinetic NADPH readout, dose response, orthogonal assay, biochemical, kinetic NADPH detection (AID 540269); settings: purified PfG6PD-6PGL
Calls of active or inactive are those of the source. The rule behind the calls is not given here.
Respond only with the outcome that fits, drawn from active, inactive

Example results:
Cc1ccnc(-n2sc3ccccc3c2=O)n1 | active
COc1cc(C(=O)O/N=C2\C=CC(=O)C=C2C)cc(OC)c1OC | inactive
CCOC(=O)C1CCCN(C(=O)Cn2sc3nc(C)cc(C)c3c2=O)C1 (stereo not drawn) | active
Nn1c(CSc2nc3ccccc3o2)nnc1CSc1nc2ccccc2o1 | inactive
N#Cc1ccc2sn(-c3ccccc3)c(=O)c2c1 | active
OCCN1CCN(C(=S)c2ccc(-c3ccccc3)cc2)CC1 | inactive
O=C1NC(=O)N(c2ccccc2)C(=O)/C1=C/c1ccc([N+](=O)[O-])s1 | inactive
COc1cc(CNc2ccc3[nH]c(=O)[nH]c3c2)ccc1OCc1ccccc1 | inactive
Cc1cc(C)nc(/N=C(\N)Nc2ccccc2-c2ccccc2)n1 | inactive
COc1cc(N=c2ssnc2Cl)cc(OC)c1OC | active

Q. Record lookup: outcome of this test for Cc1ccc(-c2csc(NC(=O)c3ccc(Br)cc3)c2C(=O)O)cc1 ?
A. active

Q. Outcome? O=S(=O)(Nc1cc(Sc2ncn[nH]2)c(O)c2ccccc12)c1ccccc1
A. active
